All figures here come from ChEMBL document CHEMBL4406842.

Assay explanation: Solubility of compound in water
Assay type: physicochemical
Assay context: buffer
Measured attribute: solubility

Structure notation: C=C1C(=O)[C@]23[C@H](OC(=O)CN)[C@H]1C[C@H](O)[C@H]2[C@]1(COC(C)=O)CCCC(C)(C)[C@H]1C[C@H]3OC.O=C(O)C(F)(F)F
Measured attribute: solubility
Result: Soluble
--
Structure notation: C=C1C(=O)[C@]23[C@H](OC(=O)CNC)[C@H]1C[C@H](O)[C@H]2[C@]1(COC(C)=O)CCCC(C)(C)[C@H]1C[C@H]3OC.O=C(O)C(F)(F)F
Measured attribute: solubility
Result: Soluble
--
Structure notation: C=C1C(=O)[C@]23[C@H](OC(=O)[C@H](CCc4ccccc4)NC(=O)OC(C)(C)C)[C@H]1C[C@H](O)[C@H]2[C@]1(COC(C)=O)CCCC(C)(C)[C@H]1C[C@H]3OC
Measured attribute: solubility
Result: Insoluble
--
Structure notation: C=C1C(=O)[C@]23[C@H](OC(=O)[C@H](C)NC(=O)OC(C)(C)C)[C@H]1C[C@H](O)[C@H]2[C@]1(COC(C)=O)CCCC(C)(C)[C@H]1C[C@H]3OC
Measured attribute: solubility
Result: Insoluble
--
Structure notation: C=C1C(=O)[C@]23[C@H](OC(=O)[C@H]4CCCN(C(=O)OC(C)(C)C)C4)[C@H]1C[C@H](O)[C@H]2[C@]1(COC(C)=O)CCCC(C)(C)[C@H]1C[C@H]3OC
Measured attribute: solubility
Result: Insoluble
--
Structure notation: C=C1C(=O)[C@]23[C@H](OC(=O)[C@@H](N)CCCCN)[C@H]1C[C@H](O)[C@H]2[C@]1(COC(C)=O)CCCC(C)(C)[C@H]1C[C@H]3OC.O=C(O)C(F)(F)F.O=C(O)C(F)(F)F
Measured attribute: solubility
Result: Soluble
--
Structure notation: C=C1C(=O)[C@]23[C@H](OC(=O)[C@H](CCCNC(=O)OC(C)(C)C)NC(=O)OC(C)(C)C)[C@H]1C[C@H](O)[C@H]2[C@]1(COC(C)=O)CCCC(C)(C)[C@H]1C[C@H]3OC
Measured attribute: solubility
Result: Insoluble
--
Structure notation: C=C1C(=O)[C@]23[C@H](OC(=O)[C@H](CCCC)NC(=O)OC(C)(C)C)[C@H]1C[C@H](O)[C@H]2[C@]1(COC(C)=O)CCCC(C)(C)[C@H]1C[C@H]3OC
Measured attribute: solubility
Result: Insoluble
--
Structure notation: C=C1C(=O)[C@]23[C@H](OC(=O)[C@H](C(C)C)N(C)C(=O)OC(C)(C)C)[C@H]1C[C@H](O)[C@H]2[C@]1(COC(C)=O)CCCC(C)(C)[C@H]1C[C@H]3OC
Measured attribute: solubility
Result: Insoluble
--
Structure notation: C=C1C(=O)[C@]23[C@H](OC(=O)[C@H](Cc4ccccc4)N(C)C(=O)OC(C)(C)C)[C@H]1C[C@H](O)[C@H]2[C@]1(COC(C)=O)CCCC(C)(C)[C@H]1C[C@H]3OC
Measured attribute: solubility
Result: Insoluble

----------
Assay explanation: Solubility of compound in water
Type: physicochemical
Assay context: buffer

Structure notation: C=C1C(=O)[C@]23[C@H](OC(=O)CN(C)C(=O)OC(C)(C)C)[C@H]1C[C@H](O)[C@H]2[C@]1(COC(C)=O)CCCC(C)(C)[C@H]1C[C@H]3OC
solubility: Insoluble
//
Structure notation: C=C1C(=O)[C@]23[C@H](OC(=O)[C@H](Cc4ccccc4)NC(=O)OC(C)(C)C)[C@H]1C[C@H](O)[C@H]2[C@]1(COC(C)=O)CCCC(C)(C)[C@H]1C[C@H]3OC
solubility: Insoluble
//
Structure notation: C=C1C(=O)[C@]23[C@H](OC(=O)CCCCN)[C@H]1C[C@H](O)[C@H]2[C@]1(COC(C)=O)CCCC(C)(C)[C@H]1C[C@H]3OC.O=C(O)C(F)(F)F
solubility: Soluble
//
Structure notation: C=C1C(=O)[C@]23[C@H](OC(=O)[C@H](Cc4ccccc4)NC)[C@H]1C[C@H](O)[C@H]2[C@]1(COC(C)=O)CCCC(C)(C)[C@H]1C[C@H]3OC.O=C(O)C(F)(F)F
solubility: Soluble
//
Structure notation: C=C1C(=O)[C@]23[C@H](OC(=O)[C@@H](N)CCCC)[C@H]1C[C@H](O)[C@H]2[C@]1(COC(C)=O)CCCC(C)(C)[C@H]1C[C@H]3OC.O=C(O)C(F)(F)F
solubility: Soluble
//
Structure notation: C=C1C(=O)[C@]23[C@H](OC(=O)[C@@H]4CCCCN4)[C@H]1C[C@H](O)[C@H]2[C@]1(COC(C)=O)CCCC(C)(C)[C@H]1C[C@H]3OC.O=C(O)C(F)(F)F
solubility: Soluble
//
Structure notation: C=C1C(=O)[C@]23[C@H](OC(=O)[C@@H](N)CCCN)[C@H]1C[C@H](O)[C@H]2[C@]1(COC(C)=O)CCCC(C)(C)[C@H]1C[C@H]3OC.O=C(O)C(F)(F)F.O=C(O)C(F)(F)F
solubility: Soluble
//
Structure notation: C=C1C(=O)[C@]23[C@H](OC(=O)CCCCCNC(=O)OC(C)(C)C)[C@H]1C[C@H](O)[C@H]2[C@]1(COC(C)=O)CCCC(C)(C)[C@H]1C[C@H]3OC
solubility: Insoluble

----------
Test system: MCF7
Assay explanation: Antiproliferative activity against human MCF7 cells assessed as reduction in cell viability incubated for 72 hrs by SRB assay
Type: functional, cell-based
Assay context: MCF7, 72 h
pIC50: −log10 of the molar value.
Quick reference: pIC50 of the listed items.

Structure notation: C=C1C(=O)[C@]23[C@H](OC(=O)[C@@H](N)CCC)[C@H]1C[C@H](O)[C@H]2[C@]1(COC(C)=O)CCCC(C)(C)[C@H]1C[C@H]3OC.O=C(O)C(F)(F)F
pIC50: 5.34
//
Structure notation: C=C1C(=O)[C@]23[C@H](OC(=O)CCCCCN)[C@H]1C[C@H](O)[C@H]2[C@]1(COC(C)=O)CCCC(C)(C)[C@H]1C[C@H]3OC.O=C(O)C(F)(F)F
pIC50: 5.43
//
Structure notation: C=C1C(=O)[C@]23[C@H](OC(=O)[C@H](CCc4ccccc4)NC(=O)OC(C)(C)C)[C@H]1C[C@H](O)[C@H]2[C@]1(COC(C)=O)CCCC(C)(C)[C@H]1C[C@H]3OC
pIC50: 5.66
//
Structure notation: C=C1C(=O)[C@]23[C@H](OC(=O)[C@H](CCCNC(=O)OC(C)(C)C)NC(=O)OC(C)(C)C)[C@H]1C[C@H](O)[C@H]2[C@]1(COC(C)=O)CCCC(C)(C)[C@H]1C[C@H]3OC
pIC50: 5.67
//
Structure notation: C=C1C(=O)[C@]23[C@H](OC(=O)CCCCNC(=O)OC(C)(C)C)[C@H]1C[C@H](O)[C@H]2[C@]1(COC(C)=O)CCCC(C)(C)[C@H]1C[C@H]3OC
pIC50: 5.81
//
Structure notation: C=C1C(=O)[C@]23[C@H](O)[C@H]1C[C@H](O)[C@H]2[C@]1(COC(C)=O)CCCC(C)(C)[C@H]1C[C@H]3OC
pIC50: 5.78
//
Structure notation: C=C1C(=O)[C@]23[C@H](OC(=O)[C@H](CC)NC(=O)OC(C)(C)C)[C@H]1C[C@H](O)[C@H]2[C@]1(COC(C)=O)CCCC(C)(C)[C@H]1C[C@H]3OC
pIC50: 5.51
//
Structure notation: C=C1C(=O)[C@]23[C@H](OC(=O)[C@@H](NC(=O)OC(C)(C)C)C(C)C)[C@H]1C[C@H](O)[C@H]2[C@]1(COC(C)=O)CCCC(C)(C)[C@H]1C[C@H]3OC
pIC50: 5.56
//
Structure notation: C=C1C(=O)[C@]23[C@H](OC(=O)[C@@H](N)CCCCN)[C@H]1C[C@H](O)[C@H]2[C@]1(COC(C)=O)CCCC(C)(C)[C@H]1C[C@H]3OC.O=C(O)C(F)(F)F.O=C(O)C(F)(F)F
pIC50: 4.65
//
Structure notation: C=C1C(=O)[C@]23[C@H](OC(=O)[C@H](Cc4ccccc4)NC(=O)OC(C)(C)C)[C@H]1C[C@H](O)[C@H]2[C@]1(COC(C)=O)CCCC(C)(C)[C@H]1C[C@H]3OC
pIC50: 5.51
//
Structure notation: C=C1C(=O)[C@]23[C@H](OC(=O)[C@H](C)N(C)C(=O)OC(C)(C)C)[C@H]1C[C@H](O)[C@H]2[C@]1(COC(C)=O)CCCC(C)(C)[C@H]1C[C@H]3OC
pIC50: 5.69
//
Structure notation: C=C1C(=O)[C@]23[C@H](OC(=O)CN(C)C(=O)OC(C)(C)C)[C@H]1C[C@H](O)[C@H]2[C@]1(COC(C)=O)CCCC(C)(C)[C@H]1C[C@H]3OC
pIC50: 5.51
//
Structure notation: C=C1C(=O)[C@]23[C@H](OC(=O)CNC)[C@H]1C[C@H](O)[C@H]2[C@]1(COC(C)=O)CCCC(C)(C)[C@H]1C[C@H]3OC.O=C(O)C(F)(F)F
pIC50: 5.44
//
Structure notation: C=C1C(=O)[C@]23[C@H](OC(=O)[C@H](C)NC(=O)OC(C)(C)C)[C@H]1C[C@H](O)[C@H]2[C@]1(COC(C)=O)CCCC(C)(C)[C@H]1C[C@H]3OC
pIC50: 5.63
//
Structure notation: C=C1C(=O)[C@]23[C@H](OC(=O)[C@@H](N)CCCN)[C@H]1C[C@H](O)[C@H]2[C@]1(COC(C)=O)CCCC(C)(C)[C@H]1C[C@H]3OC.O=C(O)C(F)(F)F.O=C(O)C(F)(F)F
pIC50: 5.18
//
Structure notation: C=C1C(=O)[C@]23[C@H](OC(=O)[C@@H](N)CC)[C@H]1C[C@H](O)[C@H]2[C@]1(COC(C)=O)CCCC(C)(C)[C@H]1C[C@H]3OC.O=C(O)C(F)(F)F
pIC50: 5.43
//
Structure notation: C=C1C(=O)[C@]23[C@H](OC(=O)CCCCN)[C@H]1C[C@H](O)[C@H]2[C@]1(COC(C)=O)CCCC(C)(C)[C@H]1C[C@H]3OC.O=C(O)C(F)(F)F
pIC50: 5.10
//
Structure notation: C=C1C(=O)[C@]23[C@H](OC(=O)[C@@H]4CCCN4C(=O)OC(C)(C)C)[C@H]1C[C@H](O)[C@H]2[C@]1(COC(C)=O)CCCC(C)(C)[C@H]1C[C@H]3OC
pIC50: 5.43
//
Structure notation: C=C1C(=O)[C@]23[C@H](OC(=O)[C@H](CCC)NC(=O)OC(C)(C)C)[C@H]1C[C@H](O)[C@H]2[C@]1(COC(C)=O)CCCC(C)(C)[C@H]1C[C@H]3OC
pIC50: 5.59
//
Structure notation: C=C1C(=O)[C@]23[C@H](OC(=O)[C@@H](N)CCCC)[C@H]1C[C@H](O)[C@H]2[C@]1(COC(C)=O)CCCC(C)(C)[C@H]1C[C@H]3OC.O=C(O)C(F)(F)F
pIC50: 5.60
